- measured.on: horseradish peroxidase (HRP) tagged delF508-CFTR (Homo sapiens, UniProt P13569, DEL508-508)
- Construct: expressed in transfected cells
- protocol.summary: Measurement of delF508-CFTR-HRP surface expression in CFBE41o- cells;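 also: percent efficacy relative to reference corrector lumacaftor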
- Format: cell-based
- test.settings: CFBE41o- cells; surface expression Amax; read-out: DelF508-CFTR-HRP Amax %
measured.metric: Emax

>>> result_value("C[C@@]1(C(=O)O)CCCN(c2cccc(S(=O)(=O)Nc3ccc(C4CC4)c(-c4ccccc4C4CC4)n3)n2)C1 [Example 407]")
"468%"
>>> result_value("COc1ccc(NS(=O)(=O)c2cccc(N3CCC[C@@](C)(C(=O)O)C3)n2)nc1-c1ccccc1C [Example 410]")
"210%"
>>> result_value("CC(C)COc1ccccc1-c1nc(NS(=O)(=O)c2cccc(N3CCCC(C)(C(=O)O)C3)n2)ccc1Cl (stereo not shown) [Example 400]")
"672%"
>>> result_value("Cc1ccccc1-c1nc(NS(=O)(=O)c2cccc(N3CCC4(CC3)CC(C(=O)O)C4)n2)ccc1C(F)(F)F [Example 446]")
"278%"

----------
- measured.on: horseradish peroxidase (HRP) tagged delF508-CFTR (Homo sapiens, UniProt P13569, DEL508-508)
- Construct: expressed in transfected cells
- protocol.summary: Measurement of delF508-CFTR-HRP surface expression in CFBE41o- cells;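 also: percent efficacy relative to reference corrector lumacaftor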
- Format: cell-based
- test.settings: CFBE41o- cells; surface expression Amax; read-out: DelF508-CFTR-HRP Amax %
Each entry below lists one item and its recorded Emax value.
measured.metric: Emax (%)

>>> result_value("CCCC1(C(=O)O)CCCN(c2cccc(S(=O)(=O)Nc3ccc(Cl)c(-c4ccccc4C)n3)n2)C1 (stereo not shown)")
465
>>> result_value("CC1(C(=O)O)CCCN(c2cccc(S(=O)(=O)Nc3ccc(C(F)(F)F)c(-c4ccccc4CCO)n3)n2)C1 (stereo not shown)")
94.1
>>> result_value("CC(C)c1ccccc1-c1nc(NS(=O)(=O)c2cccc(N[C@@H]3C[C@@]4(C(=O)O)CC[C@@H]3O4)n2)ccc1C(F)(F)F (racemic)")
155
>>> result_value("Cc1ccccc1-c1nc(NS(=O)(=O)c2cccc(N3CCC[C@](C)(C(=O)O)C3)n2)ccc1C(F)(F)F")
713
>>> result_value("CCCc1ccccc1-c1nc(NS(=O)(=O)c2cccc(N3CCC(C)(C(=O)O)CC3)n2)ccc1C(F)(F)F")
711
>>> result_value("Cc1ccccc1-c1nc(NS(=O)(=O)c2cccc(NC3CCC(C(=O)O)C3)n2)ccc1C(F)(F)F (mixture of isomers)")
332
>>> result_value("CC1(C(=O)O)CCCN(c2cccc(S(=O)(=O)Nc3ccc(C(F)(F)F)c(-c4ccccc4Cl)n3)n2)C1 (stereo not shown)")
728

----------
- measured.on: horseradish peroxidase (HRP) tagged delF508-CFTR (Homo sapiens, UniProt P13569, DEL508-508)
- Construct: expressed in transfected cells
- protocol.summary: Measurement of delF508-CFTR-HRP surface expression in CFBE41o- cells;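 also: percent efficacy relative to reference corrector lumacaftor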
- Type: cell-based
- test.settings: delF508-CFTR-HRP surface expression, CFBE41o- cells; read-out: DelF508-CFTR-HRP Amax %
Structures can show the parent of a compound that is named as a salt.
measured.metric: Emax

>>> result_value("COc1ccc(F)cc1-c1nc(NS(=O)(=O)c2cccc(N)n2)ccc1Cl")
"240%"
>>> result_value("Cc1cccc(C)c1-c1nc(NS(=O)(=O)c2cccc(N)n2)ccc1Cl")
"579%"
>>> result_value("Cc1ccccc1-c1nc(NS(=O)(=O)c2cccc(N3CCNCC3)n2)ccc1Cl [Example 195, hydrochloride]")
"213%"
>>> result_value("Cc1ccccc1-c1nc(NS(=O)(=O)c2cccc(N3CCC(N)CC3)n2)ccc1C(F)(F)F [Example 108, Hydrochloride]")
"336%"

----------
The entries below are paired with their reported EC50.
- measured.on: delF508-CFTR (Homo sapiens, UniProt P13569, DEL508-508)
- Construct: functional activity of the CFTR channel (Chloride ion transport) in patient derived primary human bronchial epithelial cells
- Sequence (P13569 with tags, fused parts or gaps DEL508-508): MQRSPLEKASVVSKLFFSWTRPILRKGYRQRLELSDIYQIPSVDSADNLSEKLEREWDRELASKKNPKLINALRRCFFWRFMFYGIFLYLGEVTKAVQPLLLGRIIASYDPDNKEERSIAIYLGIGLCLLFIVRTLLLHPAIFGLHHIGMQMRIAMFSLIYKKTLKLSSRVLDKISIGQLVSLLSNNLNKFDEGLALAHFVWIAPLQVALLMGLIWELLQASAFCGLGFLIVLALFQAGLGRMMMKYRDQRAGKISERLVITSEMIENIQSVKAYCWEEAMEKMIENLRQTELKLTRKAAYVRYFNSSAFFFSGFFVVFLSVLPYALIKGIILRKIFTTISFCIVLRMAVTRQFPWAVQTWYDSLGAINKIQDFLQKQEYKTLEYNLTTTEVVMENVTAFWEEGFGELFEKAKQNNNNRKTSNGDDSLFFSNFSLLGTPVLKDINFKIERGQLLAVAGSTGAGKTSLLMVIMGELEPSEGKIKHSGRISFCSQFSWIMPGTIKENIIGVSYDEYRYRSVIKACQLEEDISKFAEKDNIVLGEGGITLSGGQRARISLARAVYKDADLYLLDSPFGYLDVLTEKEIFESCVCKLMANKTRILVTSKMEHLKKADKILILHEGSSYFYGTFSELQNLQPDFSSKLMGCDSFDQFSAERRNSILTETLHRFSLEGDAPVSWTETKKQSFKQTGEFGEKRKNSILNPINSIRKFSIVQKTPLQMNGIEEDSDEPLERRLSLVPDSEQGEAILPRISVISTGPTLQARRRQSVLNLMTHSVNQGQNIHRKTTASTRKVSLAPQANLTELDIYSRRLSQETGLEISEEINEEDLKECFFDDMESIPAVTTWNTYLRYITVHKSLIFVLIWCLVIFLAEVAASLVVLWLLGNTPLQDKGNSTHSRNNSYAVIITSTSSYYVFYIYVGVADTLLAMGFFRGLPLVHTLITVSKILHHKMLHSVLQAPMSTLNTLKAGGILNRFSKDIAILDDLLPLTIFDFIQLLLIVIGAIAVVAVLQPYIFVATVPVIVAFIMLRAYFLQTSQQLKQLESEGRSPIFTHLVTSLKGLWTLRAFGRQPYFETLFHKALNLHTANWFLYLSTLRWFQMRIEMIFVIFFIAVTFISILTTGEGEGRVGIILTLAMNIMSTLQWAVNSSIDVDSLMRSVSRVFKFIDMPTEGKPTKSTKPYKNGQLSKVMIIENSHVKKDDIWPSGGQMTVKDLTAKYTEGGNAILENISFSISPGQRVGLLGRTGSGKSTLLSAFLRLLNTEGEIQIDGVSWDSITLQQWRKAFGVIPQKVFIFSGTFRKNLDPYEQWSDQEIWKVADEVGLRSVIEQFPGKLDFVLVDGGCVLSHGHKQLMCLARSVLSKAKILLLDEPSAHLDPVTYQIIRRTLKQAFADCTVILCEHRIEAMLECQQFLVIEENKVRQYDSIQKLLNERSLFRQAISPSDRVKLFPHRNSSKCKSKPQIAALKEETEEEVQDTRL
- protocol.summary: Measurement of delF508-CFTR functional activity in primary human bronchial epithelial cells (HBECs) using Multi-Transepithelial Clamp Circuit (MTECC-24) assay
- test.settings: primary CF HBECs; test compound added 24h before assay, in the presence of potentiator; mean of at least two replicates; read-out: MTECC24 CFHBEC- EC50
- Method: [formula] Measurement of delF508-CFTR Functional Activity in Primary Human Bronchial Epithelial Cells (HBECs) Using Multi-Transepithelial Clamp Circuit (MTECC-24) Assay […] Modulators were added sequentially as follows while the MTECC24 instrument recorded the equivalent short circuit current (Ieq): […]
measured.metric: EC50

>>> result_value("Cc1ccccc1-c1nc(NS(=O)(=O)c2cccc(N3CCN(C(N)=O)CC3)n2)ccc1C(F)(F)F")
"53.5 nM"
>>> result_value("O=S(=O)(Nc1ccc(C(F)(F)F)c(-c2ccccc2C(F)(F)F)n1)c1ccnc(N2CC(O)C2)c1")
"15.4 nM"
>>> result_value("Cc1ccc(F)cc1-c1nc(NS(=O)(=O)c2ccnc(N)c2)ccc1C(F)(F)F")
"39.9 nM"
>>> result_value("Cc1cccc(C)c1-c1nc(NS(=O)(=O)c2cccc(N[C@H]3C[C@@H](O)C3)n2)ccc1Cl")
"23.9 nM"
>>> result_value("Cc1cccc(C)c1-c1nc(NS(=O)(=O)c2cccc(N[C@H]3C[C@@](C)(O)C3)n2)ccc1Cl")
"18.9 nM"
>>> result_value("Nc1cccc(S(=O)(=O)Nc2ccc(Cl)c(-c3cccc(C(F)(F)F)c3)n2)n1")
"134 nM"
>>> result_value("O=S(=O)(Nc1ccc(Cl)c(-c2ccccc2C(F)(F)F)n1)c1cccc(N[C@H]2COC[C@@H]2O)n1")
"47.5 nM"

----------
- measured.on: horseradish peroxidase (HRP) tagged delF508-CFTR (Homo sapiens, UniProt P13569, DEL508-508)
- Construct: expressed in transfected cells
- protocol.summary: Measurement of delF508-CFTR-HRP surface expression in CFBE41o- cells;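 also: percent efficacy relative to reference corrector lumacaftor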
- Type: cell-based
- test.settings: delF508-CFTR-HRP surface expression, CFBE41o- cells; read-out: DelF508-CFTR-HRP Amax %
Counter-ions that a name gives are not always drawn.
// F strictly below 300% in Emax; T otherwise

>>> assigned_category("Cc1ccccc1-c1nc(NS(=O)(=O)c2ccc(C)c(N)n2)ccc1C(F)(F)F [Example 36]")
"T"
>>> assigned_category("CNC1CCN(c2cccc(S(=O)(=O)Nc3ccc(C(F)(F)F)c(-c4ccccc4C)n3)n2)CC1 [Example 109, Hydrochloride]")
"T"
>>> assigned_category("O=S(=O)(Nc1ccc(C(F)(F)F)c(-c2ccccc2Cl)n1)c1cccc(N2CC(O)C2)n1 [Example 222]")
"T"
>>> assigned_category("Nc1cccc(S(=O)(=O)Nc2ccc(Cl)c(-c3cccc(C(F)(F)F)c3)n2)n1 [Example 73]")
"F"
>>> assigned_category("Cc1ccccc1-c1nc(NS(=O)(=O)c2cccc(N3CCN[C@@H](C(=O)O)C3)n2)ccc1C(F)(F)F [Example 341]")
"F"
>>> assigned_category("CC1(C(=O)O)CCN(c2cccc(S(=O)(=O)Nc3ccc(C(F)(F)F)c(-c4cccc(F)c4Cl)n3)n2)CC1 [Example 242]")
"T"
>>> assigned_category("COc1ccc(F)cc1-c1nc(NS(=O)(=O)c2cccc(N3CCN(C(C)(C)C)CC3)n2)ccc1C(F)(F)F [Example 149]")
"F"
>>> assigned_category("Cc1ccc(Cl)c(-c2nc(NS(=O)(=O)c3cccc(N)n3)ccc2Cl)c1F [Example 38]")
"T"
>>> assigned_category("Cc1ccc(F)cc1-c1nc(NS(=O)(=O)c2cccc(N3CCN[C@@H](C)C3)n2)ccc1C(F)(F)F [Example 177, Hydrochloride]")
"T"
>>> assigned_category("Cc1ccccc1-c1nc(NS(=O)(=O)c2cccc(OC3CC(C(=O)O)C3)n2)ccc1C(F)(F)F (mixture of isomers) [Example 331]")
"F"
>>> assigned_category("Cc1cc(C#N)ccc1-c1nc(NS(=O)(=O)c2cccc(N)n2)ccc1Cl [Example 91]")
"F"
>>> assigned_category("Cc1cccc(C)c1-c1nc(NS(=O)(=O)c2cccc(N)n2)ccc1C(F)(F)F [Example 2]")
"T"
>>> assigned_category("CC(C)c1ccccc1-c1nc(NS(=O)(=O)c2cccc(N)n2)ccc1F [Example 35]")
"T"
>>> assigned_category("COc1ccc(Cl)c(-c2nc(NS(=O)(=O)c3cccc(N4CCC(C)(C(=O)O)CC4)n3)ccc2C(F)(F)F)c1 [Example 241]")
"T"
>>> assigned_category("Nc1cccc(S(=O)(=O)Nc2ccc(Cl)c(-c3c(F)cc(F)cc3F)n2)n1 [Example 86]")
"F"
>>> assigned_category("Cc1ccccc1-c1nc(NS(=O)(=O)c2cccc(N3CC(C(=O)O)C3)n2)ccc1C(F)(F)F [Example 330]")
"F"
>>> assigned_category("C[C@]1(C(=O)O)CCCN(c2cccc(S(=O)(=O)Nc3ccc(C(F)(F)F)c(-c4ccccc4C4CCC4)n3)n2)C1 [Example 373]")
"T"
>>> assigned_category("Cc1ccccc1-c1nc(NS(=O)(=O)c2cccc(N3CCNC[C@H]3C(=O)O)n2)ccc1C(F)(F)F [Example 354]")
"F"
>>> assigned_category("Cc1ccccc1-c1nc(NS(=O)(=O)c2cccc(N[C@@H]3CCNC[C@@H]3F)n2)ccc1C(F)(F)F (relative stereo) [Example 117, Hydrochloride]")
"F"
>>> assigned_category("Cc1ccccc1-c1nc(NS(=O)(=O)c2cccc(N3CCN(C(=O)OC(C)(C)C)[C@H](C(=O)O)C3)n2)ccc1C(F)(F)F [Example 334]")
"F"
>>> assigned_category("Cc1ccccc1-c1nc(NS(=O)(=O)c2cccc(N3CC(C)(O)C3)n2)ccc1Br [Example 207]")
"T"
>>> assigned_category("Cc1ccc(F)cc1-c1nc(NS(=O)(=O)c2cccc(N3CC(C)(O)C3)n2)ccc1C(F)(F)F [Example 219]")
"T"
>>> assigned_category("Cc1c(F)cccc1-c1nc(NS(=O)(=O)c2cccc(N3CCN(C4CC4)CC3)n2)ccc1Cl [Example 141]")
"T"
>>> assigned_category("Cc1ccccc1-c1nc(NS(=O)(=O)c2cccc(N)n2)ccc1F [Example 70]")
"F"
>>> assigned_category("Cc1ccc(C#N)cc1-c1nc(NS(=O)(=O)c2ccnc(N3CC(C)(O)C3)c2)ccc1C(F)(F)F [Example 317]")
"F"
>>> assigned_category("COc1ccccc1-c1nc(NS(=O)(=O)c2cccc(N)n2)ccc1Cl [Example 76]")
"F"
>>> assigned_category("O=S(=O)(Nc1ccc(C(F)(F)F)c(-c2ccccc2C2CC2)n1)c1cccc(N2CC(O)C2)n1 [Example 208]")
"T"
>>> assigned_category("Cc1ccccc1-c1nc(NS(=O)(=O)c2cccc(N3CCC34CNC4)n2)ccc1C(F)(F)F [Example 313]")
"F"
>>> assigned_category("Cc1ccccc1-c1nc(NS(=O)(=O)c2cccc(O[C@@H]3COCC3(C)O)n2)ccc1C(F)(F)F (mixture of isomers) [Example 293]")
"T"
>>> assigned_category("Cc1ccc(F)cc1-c1nc(NS(=O)(=O)c2cccc(N3CCC(O)C3C(=O)O)n2)ccc1C(F)(F)F (stereo not drawn) [Example 315]")
"F"
